The origin of these recorded values is PubChem BioAssay (NCI).

For each entry below, report its growth value.
System: MDA-MB-435 melanoma
Experiment: NCI-60 one-dose screen, 48 h (100 = growth as untreated, 0 = no growth, -100 = all killed)
Details: 10 µM unless noted
Procedure: Growth inhibition of the MDA-MB-435 human Melanoma tumor cell line is measured as a screen for anti-cancer activity. Cells are grown in 96 well plates and exposed to the test compound for 48 hours. Compounds are tested at a single concentration, which is 10^-5 M for most compounds. The reported endpoint is percent growth (GI% or GIPRCNT), where numbers from 0 - 100% represent growth inhibition, and numbers from -100% - 0 represent cell death. […]
Compounds without any hit were thinned out: in the full panel of roughly 83,000, 20% have a hit.
Give bare numbers, in %.

{"columns": ["molecule", "growth (%)"],
 "data": [
  ["NCCCn1c2c(c3cc(-c4ccn[nH]4)ccc3c1=O)C(=O)c1ccccc1-2", 63],
  ["C=C1C(=O)O[C@H]2[C@H]1CC/C(COC(=O)c1cn(C)c3ccccc13)=C\\CC[C@@]1(C)O[C@@H]21", -51.2],
  ["Cc1nc2sc(C(=O)Nc3ccccc3)c(N)c2cc1C(C)O (configuration not stated)", -41.1],
  ["CCOC(=O)c1c(C)nc2c(c1N)/C(=C/c1cccs1)C(=O)N2Cc1ccccc1", 88.9],
  ["COc1ccc([C@H]2[C@@H](F)C(=O)N2c2cc(OC)c(OC)c(OC)c2)cc1F", 0.354],
  ["Cc1cc(NC(=O)CNc2nc(Oc3ccc(F)cc3)nc(-c3ccc(F)cc3)n2)ccc1Cl", 105],
  ["COC(=O)/C=C1\\SC(=Nc2cccc(OC)c2)N(CCc2c[nH]c3ccccc23)C1=O", 62.5],
  ["O=C(Nc1ccc(N=Cc2ccccc2O)cc1)NC1C=c2ccccc2=CC1 (configuration not stated)", 104],
  ["CN1CCN(S(=O)(=O)O[C@@H]2C(=O)N(c3cc4c5ccccc5ccc4c4ccccc34)[C@H]2c2ccc(F)cn2)CC1", 98.1],
  ["CC1(c2ccccc2Cl)NC(=O)NC1=O (configuration not stated)", 105]
]}

State the recorded growth for every item in the following list.
1. NCCN1CCNCC1
2. CC(C)NS(=O)(=O)c1cccc(-c2ccc3c(=O)n(CCCN)c4c(c3c2)C(=O)c2ccccc2-4)c1

Reply:
1. 105
2. 107

Below is a list of molecules. For each, state its recorded growth.
1. CC(=O)OCC1SC(OC(C)=O)C(NC(=O)/C=C/CCl)C(OC(C)=O)C1OC(C)=O (configuration not stated)
2. CC(=O)c1cc2c(N)c(C(=O)Nc3ccccn3)sc2nc1C
3. CN(C)C1=NCCN1
4. Cc1cc(Cl)cc(CN(Cc2ccccc2)Cc2c(O)ccc3ccccc23)c1O
5. COc1ccccc1-c1ccc2nc(NC(=O)Nc3cc(C(F)(F)F)cc(C(F)(F)F)c3)sc2c1

Reply:
1. 101
2. 5.72
3. 110
4. 112
5. 10.9

* * *

System: RXF 393 renal
Test: NCI-60 one-dose screen, 48 h
Settings: 10 µM unless noted
The panel holds about 83,000 compounds, 20% with a hit somewhere; the sample as a whole holds those more often. Calls of active or inactive are those of the source. How the source made its calls: active means growth percent below 10; inactive means the rest.
Use one of these outcomes when replying: yes = active, no = inactive

Query: Tell me the assay call for `CCN1CCN(Cc2ccc(NC(=O)c3cccc(C#Cc4cccc5[nH]nc(N)c45)c3)cc2C(F)(F)F)CC1` please.
Reply: yes

Query: In this assay, the call recorded for `COc1ccc(Sc2[nH]c(C(C)=O)c3ccccc23)cc1` was what?
Reply: no

Query: Status in this test for `N#Cc1ccc(Oc2ccc3ccc(=O)oc3c2)cc1` ?
Reply: no

Query: Record lookup: outcome of this test for `C#C[C@@]1(O)[C@@H](CO)O[C@@H](n2cc(I)c3c(N)ncnc32)[C@@H]1O` ?
Reply: yes

Query: Answer briefly: the call reported for `C#CC[C@@H]1C[C@]2(C)[C@H]3CC[C@@H]4[C@H]5[C@H](C(=C)C)CC[C@]5(C(=O)O)CC[C@@]4(C)[C@]3(C)CC[C@H]2C(C)(C)[C@H]1O` in this assay.
Reply: yes

* * *

Test system: SNB-75 CNS
Assay: NCI-60 one-dose screen, 48 h
Settings: 10 µM unless noted
About 83,000 compounds went through this panel and 20% of them were active in at least one assay; those are over-represented in the sample as a whole. Active and inactive are the calls of the source. Rule for the calls: active = growth percent below 10; inactive = the rest.
Can you answer with just one of these options? active, inactive

{"columns": ["smilesStr", "label"],
 "data": [
  ["Nc1cc(N)c(S(=O)(=O)O)cc1N=Nc1cc([N+](=O)[O-])ccc1O", "inactive"],
  ["CNC(=O)c1cc(Oc2ccc3c(c2)sc2nc(-c4ccc(NC(C)=O)cc4)cn23)ccn1", "active"],
  ["CSc1nc(-c2ccco2)c2c(N)[nH]nc2n1", "inactive"]
]}

Query: Record request — test call for `COc1ccc2[nH]c(=O)c(/C=C/C(=O)c3ccccc3OC)cc2c1`
Reply: active

Query: // return assay outcome for `C=C(C)[C@@H]1CC[C@]2(C(=O)O)CC[C@]3(C)[C@H](CC[C@@H]4[C@@]5(C)C[C@@H](CC#Cc6ccccc6C)C(=O)C(C)(C)[C@@H]5CC[C@]43C)[C@@H]12`
Reply: inactive

Query: What call does the record list for `O=C1[C@@H](OS(=O)(=O)CC(F)(F)F)[C@H](c2ccc(F)cn2)N1c1cc2c3ccccc3ccc2c2ccccc12` ?
Reply: inactive

Query: Give the logged outcome of this assay for the following compound: `COc1ccc(Nc2cc(NC(=O)CNc3cc(OC)c(Cl)c(OC)c3Cl)ncn2)cc1`
Reply: inactive

Query: Assay outcome for `C=C(C)[C@@H]1CC[C@]2(C(=O)OCCOCCOCC[P+](c3ccccc3)(c3ccccc3)c3ccccc3)CC[C@]3(C)[C@H](CC[C@@H]4[C@@]5(C)CC[C@H](OC(=O)C(Cl)Cl)C(C)(C)[C@@H]5CC[C@]43C)[C@@H]12` : what was it?
Reply: active

* * *

System: SN12C renal
Test: NCI-60 one-dose screen, 48 h (100 = growth as untreated, 0 = no growth, -100 = all killed)
Details: 10 µM unless noted
Compounds without any hit were thinned out: in the full panel of roughly 83,000, 20% have a hit.
observationType: growth (%)
One number for each entry, in %.

Sample answers from the record:
{"columns": ["compound", "growth (%)"],
 "data": [
  ["CCOC(=O)C(=Cc1c(-c2ccccc2)[nH]c2ccccc12)C(=O)OCC", 65.6],
  ["CC1(C)[C@@H](O)CC[C@]2(C)[C@H]3CC[C@@H]4[C@H]5[C@H](c6cn(-c7ccccc7)nn6)CC[C@]5(CO)CC[C@@]4(C)[C@]3(C)CC[C@@H]12", 90],
  ["N#CC(C#N)=C1NC(c2ccccc2)=C(c2ccccc2)C(c2ccccc2Cl)=C1C#N", 111]
]}

Would you mind giving growth for every compound in the list below?
1. CCOC(=O)/C(=C/c1c(-c2ccccc2)[nH]c2ccccc12)C(=O)c1ccc(Cl)cc1
2. COc1ccc(C2C(c3ccccc3)C(=O)N2c2cc(OC)c(OC)c(OC)c2)cc1I (stereo not given)

Reply:
1: 56; 2: 33

Kindly give each listed record's growth.
1. Fc1ccc(N/N=C/c2ccc(-n3cccn3)cc2)cc1
2. Cc1cc(Nc2nc(SCc3ccc(C(=O)Nc4ccc(F)cc4N)cc3)nn3cccc23)n[nH]1
3. COc1ccc(/C=C/C(=O)C(CC2CCC2)C(=O)/C=C/c2ccc(OC)c(OC)c2)cc1OC
4. CCOC(=O)c1c(-c2ccc(O)cc2)c(C#N)c2c(C#N)c(N)nn2c1N
5. COc1ccc2cc(/C=C3\N=C(c4cc(OC)c(OC)c(OC)c4)OC3=O)c(OC)nc2c1

Reply:
1: 108; 2: 29; 3: -20.7; 4: 81.7; 5: 94.2

* * *

What growth was measured for each of the following?
Test system: SN12C renal
Assay: NCI-60 one-dose screen, 48 h (100 = growth as untreated, 0 = no growth, -100 = all killed)
Details: 10 µM unless noted
About 83,000 compounds went through this panel and 20% of them were active in at least one assay; those are over-represented in the sample as a whole.
Answers are plain numbers, in %.

Field: example entries. Status: answers known.
{"columns": ["compound", "growth / %"],
 "data": [
  ["COC(=O)[C@]1(C)CCC[C@]2(C)[C@H]3C[C@H]4C(C(C)C)=C[C@]3(CC[C@H]21)[C@@H]1C(=O)N(CCC#N)C(=O)[C@@H]14", 90.2],
  ["Cc1nnc(/N=C2\\NC(=O)/C(=C/c3ccsc3)S2)s1", 99.7],
  ["COc1cc2c(Nc3ccc(NC(=O)Nc4ccc(Cl)c(C(F)(F)F)c4)c(Cl)c3)ncnc2cc1OCCCN1CCN(C)CC1", 18.6],
  ["FC(F)(F)c1ccc2c(Nc3cccc(C4CC(c5ccccc5)=NN4c4ccc(Cl)cc4)c3)ccnc2c1 (stereo unspecified)", 37.7],
  ["COc1cc(C(=O)Nc2cc(O)c(C/C=C(\\C)CCC=C(C)C)c(O)c2)cc2c1O[C@]1(C)CC[C@@H](O)C(C)(C)[C@H]1C2", 26.5]
]}

Give growth for all compounds that follow.
1. CC(=O)ON1CCCC(P(=O)(OCOC(=O)C(C)(C)C)OCOC(=O)C(C)(C)C)C1=O (stereo unspecified)
2. CCOC(=O)C1=C(C)n2nc(CC#N)c(C#N)c2NC1c1ccc(CC)cc1 (stereo unspecified)
3. C=C1C(=O)O[C@H]2[C@H]1CC/C(COC(=O)N1CCC[C@H]1C(=O)Nc1ccc(OC)c(C(N)=O)c1O)=C\CC[C@@]1(C)O[C@@H]21

Reply:
[-1.1, 100, 12.9]

Kindly give each listed record's growth.
1. N#Cc1c(-c2ccc(F)cc2)nc(N=Nc2c(O)[nH]c3ccccc23)nc1N1CCOCC1
2. CCN1CCC[C@H]1c1cc(O)c2c(c1OC)C[C@H]1C[C@H]3[C@H](N)C(=O)C(C(N)=O)=C(O)[C@@]3(O)C(=O)C1=C2O

Reply:
[30.4, -3.68]
